# pIC50 per record follows
tested on: L1210; test: Cytostatic activity against mouse L1210 cells after 2 days by coulter ZI particle counting analysis; format: functional, cell-based; details: L1210, 48 h
pIC50: −log10 of the molar value.

| molecule | pIC50 |
| --- | --- |
| CCOP(=O)(OCC)C(O)Cn1cc(Cn2c(Cl)nc3c2c(=O)n(C)c(=O)n3C)nn1 (centres undefined) | < 3.70 |
| CCOP(=O)(CCCCn1cc(Cn2cc(C(C)=O)c3ccccc32)nn1)OCC | 3.70 |
| CCOP(=O)(CCCn1cc(Cn2c(=O)n(C(=O)c3ccccc3)c(=O)c3ccccc32)nn1)OCC | < 3.70 |
| CCOP(=O)(OCC)C(O)CCn1cc(Cn2cc(C)c(=O)[nH]c2=O)nn1 (centres undefined) | < 3.70 |
| CCOP(=O)(CC(O)Cn1cc(Cn2c(=O)c3c(ncn3C)n(C)c2=O)nn1)OCC (centres undefined) | < 3.70 |
| CCOP(=O)(Cn1cc(Cn2c(=O)n(C(=O)c3ccccc3)c(=O)c3ccccc32)nn1)OCC | < 3.70 |
| CCOP(=O)(CCCCn1cc(Cn2c(=O)c3c(ncn3C)n(C)c2=O)nn1)OCC | < 3.70 |
| CCOP(=O)(CCn1cc(Cn2cc(C(C)=O)c3ccccc32)nn1)OCC | 3.71 |

Now for the molecule whose pIC50 we want.
Recorded pIC50 (molecule `CCOP(=O)(CCCn1cc(Cn2cnc3c2c(=O)n(C)c(=O)n3C)nn1)OCC` ): < 3.70
